- SUBJECT_OF_TEST: human CCR6 (Homo sapiens)
- Construct: expressed in transfected cells; host or cells: HEK-293
- EXPERIMENT_SUMMARY: FLIPR assay (inhibition of CCL20-induced calcium signal)
- Type: cell-based
- RUN_PARAMETERS: HEK-293 cells expressing human CCR6; mean values where determined several times; read-out: FLIPR IC50
MEASURE_NAME: IC50 (nM)

// known answers, use as guide
# MOLECULE, MEASURE_NAME, UNITS_LABEL, MEASUREMENT
records = [
    ("COc1cccc(C(C)(O)CCc2cc([C@@](O)(c3ccc(C(C)C)cc3)C3(C)CN(C)C3)cnn2)n1 (stereo partly shown) [Example 419]", "IC50", "nM", 155),
    ("CC(C)c1ccc([C@](O)(c2cncc(C#CC(C)(C)NC(=O)C3CC3)c2)C2(C)CN(C)C2)cc1 [Example 588]", "IC50", "nM", 119),
    ("CC(C)c1ccc([C@](O)(c2cncc(C#CC(C)(O)c3nccn3C)c2)C2(C)CN(C)C2)cc1 (stereo partly shown) [Example 649]", "IC50", "nM", 185),
    ("Cc1cccc(C(C)(O)C#Cc2cncc([C@@](O)(c3ccc(C(F)(F)F)cc3)C3(C)CN(C)C3)c2)n1 (stereo partly shown) [Example 656]", "IC50", "nM", 208),
    ("CC(C)c1ccc([C@](O)(c2cncc(-c3noc(C4CCC(=O)N(C)C4)n3)c2)C2(C)CN(C)C2)cc1 (stereo partly shown) [Example 479]", "IC50", "nM", 112),
]

[A] CC(C)c1ccc([C@](O)(c2cncc(C#CC(C)(O)c3cc(C4CC4)ncn3)c2)C2(C)CN(C)C2)cc1 (stereo partly shown) [Example 619]
[B] CC(C)c1ccc([C@](O)(c2ccnc(OCC3CCOCC3)c2)C2(C)CN(C)C2)cc1 [Example 277]
[C] CC(C)c1ccc([C@](O)(c2cncc(CCCO)c2)C2(C)CN(C)C2)cc1 [Example 49]
Qu. Hello, I need these entries ordered by IC50, highest reading first. Thanks! Reply with the labels, ordered as the question asks.
Ans. C, A, B

----------
- SUBJECT_OF_TEST: human CCR6 (Homo sapiens, UniProt P51684)
- Construct: expressed in transfected cells; host or cells: HEK-293
- Sequence (P51684 1-374): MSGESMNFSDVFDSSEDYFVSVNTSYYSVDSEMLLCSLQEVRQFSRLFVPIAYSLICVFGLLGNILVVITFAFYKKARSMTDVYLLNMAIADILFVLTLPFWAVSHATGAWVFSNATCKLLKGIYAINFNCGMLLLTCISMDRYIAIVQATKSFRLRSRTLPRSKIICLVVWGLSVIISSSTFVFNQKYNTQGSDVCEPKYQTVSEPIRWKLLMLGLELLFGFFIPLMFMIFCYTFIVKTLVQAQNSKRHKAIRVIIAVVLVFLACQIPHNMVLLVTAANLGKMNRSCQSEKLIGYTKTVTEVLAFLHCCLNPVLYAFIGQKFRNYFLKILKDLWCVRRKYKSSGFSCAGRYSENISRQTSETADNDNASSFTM
- EXPERIMENT_SUMMARY: FLIPR assay (inhibition of CCL20-induced calcium signal)
- Type: cell-based
- RUN_PARAMETERS: HEK-293 cells expressing human CCR6; mean values where determined several times; read-out: FLIPR IC50
- Description: FLIPR assay: The bioactivity of compounds is tested in a fluorometric imaging plate reader (FLIPR: Molecular Devices) using engineered HEK-293 cells expressing the human CCR6 (GenBank: AY242126). […] Changes in fluorescence are monitored before and after addition of the test compounds and agonist. […] The calculated IC50 values may fluctuate depending on the daily assay performance. […]
MEASURE_NAME: IC50 (µM)

// known answers, use as guide
# MOLECULE, UNITS_LABEL, MEASUREMENT
data = [
    ("CC(C)c1ccc([C@](O)(c2cncc(-c3noc(C4CC(=O)N(C(C)C)C4)n3)c2)C2(C)CN(C)C2)cc1 (single isomer, unassigned) [Example 513]", "µM", 0.101),
    ("CC(C)c1ccc([C@](O)(c2cncc(-c3nc(N4CCOCC4)no3)c2)C2(C)CN(C)C2)cc1", "µM", 0.0711),
    ("CCC(O)(CCc1cncc([C@@](O)(c2ccc(C(C)C)cc2)C2(C)CN(C)C2)c1)c1cc(C)ncn1 (stereo partly shown)", "µM", 0.138),
]

[P] COC1CN(C(C)=O)CCC1c1nc(-c2cncc([C@@](O)(c3ccc(C(C)C)cc3)C3(C)CN(C)C3)c2)no1 (stereo partly shown)
[Q] CN1CC(C)([C@](O)(c2ccc(C3(C)CC3)cc2)c2cncc(-c3noc(C(C)(C)O)n3)c2)C1
[R] CC(C)Oc1cncc([C@@](O)(c2ccc(C(C)C)cc2)C2(C)CN(C)C2)c1
[S] CN1CC(C)(C(O)(c2ccc(C3(C)CC3)cc2)c2cncc(N3CCCC3)c2)C1 (stereo not shown)
Qu. Your job: order these 4 records by IC50, ascending. Reply with the labels, ordered as the question asks.
Ans. R, Q, S, P
